protocolDescription: Cmax in Sprague-Dawley rat at 10 mg/kg, iv by HPLC-MS analysis
Type: ADME, organism-based
setupConditions: in vivo
measuredQuantity: Cmax (ng/mL)
State the answer as a number, implicitly in ng/mL.

// CC[C@@]1(O)C(=O)OCc2c1cc1n(c2=O)Cc2cc3cc(O)ccc3nc2-1 [HYDROXYCAMPTOTHECIN] : Cmax value = 1950

* * *

protocolDescription: AUC in Sprague-Dawley rat at 10 mg/kg, iv by HPLC-MS analysis
Type: ADME, organism-based
setupConditions: in vivo
measuredQuantity: AUC (ng·h/mL)
State the answer as a number, implicitly in ng·h/mL.

// CC[C@@]1(O)C(=O)OCc2c1cc1n(c2=O)Cc2cc3cc(O)ccc3nc2-1 [HYDROXYCAMPTOTHECIN] : AUC value = 1020

* * *

protocolDescription: Antiproliferative activity against human MCF-10A cells incubated for 48 hrs by CCK8 assay
Type: toxicity, cell-based
measuredQuantity: IC50 at 48 h (µM)
State the answer as a number, implicitly in µM.

Example compounds with recorded IC50 at 48 h:
CCOC(=O)CCCSC(C)(C)SCCCC(=O)Oc1ccc2nc3c(cc2c1)Cn1c-3cc2c(c1=O)COC(=O)[C@]2(O)CC    20.7
CC[C@@]1(O)C(=O)OCc2c1cc1n(c2=O)Cc2cc3cc(OC(=O)CCCSC(C)(C)SCCCC(=O)OCC/C(SSCC(C)C)=C(\C)N(C)C=O)ccc3nc2-1    33.3
CC[C@@]1(O)C(=O)OCc2c1cc1n(c2=O)Cc2cc3cc(OC(=O)CCC(=O)OCC/C(SSCC(C)C)=C(\C)N(C)C=O)ccc3nc2-1    10.5

// CC[C@@]1(O)C(=O)OCc2c1cc1n(c2=O)Cc2cc3cc(O)ccc3nc2-1 [HYDROXYCAMPTOTHECIN] : IC50 at 48 h value = 3.17

* * *

protocolDescription: Cytotoxicity against human MCF-10A cells assessed as cell viability at 5 to 50 uM incubated for 24 hrs by CCK8 assay relative to control
Type: toxicity, cell-based
setupConditions: dose 5-50 µM, read-out: Activity
measuredQuantity: viability at 24 h, 50 µM

// "CCCN1C(=O)c2cccc3c(OC(=O)CCCSC(C)(C)SCCCC(=O)OCC/C(SSCC(C)C)=C(\C)N(C)C=O)ccc(c23)C1=O" : viability at 24 h, 50 µM value = > 90%

* * *

protocolDescription: Cmax in Sprague-Dawley rat at 24 mg/kg, iv by HPLC-MS analysis
Format: ADME, organism-based
setupConditions: in vivo
measuredQuantity: Cmax (ng/mL)
State the answer as a number, implicitly in ng/mL.

// "CC[C@@]1(O)C(=O)OCc2c1cc1n(c2=O)Cc2cc3cc(OC(=O)CCCSC(C)(C)SCCCC(=O)OCC/C(SSCC(C)C)=C(\C)N(C)C=O)ccc3nc2-1" : Cmax value = 7450

* * *

System: HepG2
protocolDescription: Antiproliferative activity against human HepG2 cells incubated for 48 hrs by CCK8 assay
Assay type: functional, cell-based
setupConditions: HepG2, 48 h
measuredQuantity: IC50 (nM)
State the answer as a number, implicitly in nM.

Example compounds with recorded IC50:
CC[C@@]1(O)C(=O)OCc2c1cc1n(c2=O)Cc2cc3cc(OC(=O)CCC(=O)OCC/C(SSCC(C)C)=C(\C)N(C)C=O)ccc3nc2-1    5320
CC[C@@]1(O)C(=O)OCc2c1cc1n(c2=O)Cc2cc3cc(O)ccc3nc2-1 [HYDROXYCAMPTOTHECIN]    950
CC[C@@]1(O)C(=O)OCc2c1cc1n(c2=O)Cc2cc3cc(OC(=O)CCCSC(C)(C)SCCCC(=O)OCC/C(SSCC(C)C)=C(\C)N(C)C=O)ccc3nc2-1    1010

Please look at the following compound next.
// "CCOC(=O)CCCSC(C)(C)SCCCC(=O)Oc1ccc2nc3c(cc2c1)Cn1c-3cc2c(c1=O)COC(=O)[C@]2(O)CC" : IC50 value = 1470
